system: Staphylococcus epidermidis; test: Antibacterial activity against linezolid-resistant Staphylococcus epidermidis (14-583) assessed as inhibition of microbial growth incubated for 24 hrs by microdilution assay; assay type: functional
EXPERIMENTAL READOUT: MIC

Q) Please list MIC recorded for the molecule COc1cc(C[C@@H](C)[C@@H](C)Cc2ccc(OC(C)=O)c(OC)c2)ccc1O (racemic)
A) > 50 µg/mL

Q) Please list MIC recorded for the molecule COc1cc(C[C@@H](C)[C@@H](C)Cc2ccc(OCCN3CCCCC3)c(OC)c2)ccc1OCCN1CCCCC1
A) > 50 µg/mL

Q) Please list MIC recorded for the molecule COc1cc(C[C@@H](C)[C@@H](C)Cc2ccc(OC)c(OC)c2)ccc1O (racemic)
A) > 50 µg/mL

Q) Please list MIC recorded for the molecule COc1cc(C[C@@H](C)[C@@H](C)Cc2ccc(OC(=O)c3cnccn3)c(OC)c2)ccc1O (racemic)
A) > 50 µg/mL

Q) Please list MIC recorded for the molecule COc1cc(C[C@@H](C)[C@@H](C)Cc2ccc(OC(=O)c3ccccn3)c(OC)c2)ccc1O (racemic)
A) > 50 µg/mL

Q) Please list MIC recorded for the molecule COc1cc(C[C@@H](C)[C@@H](C)Cc2ccc(OCCN3CCOCC3)c(OC)c2)ccc1OCCN1CCOCC1
A) > 50 µg/mL
